Tested on: Saccharomyces cerevisiae
Procedure text: protein stability index of tFT-peptide fusion (C-terminal peptide) (PSI (0-1 scale)); higher = more stable (slower turnover)
Test parameters: genetic background: cdc53-1; temperature: 37 C
The threshold is inclusive: protein stability index of exactly 0.6 counts as Fulfilled; values below receive Not fulfilled.

1. DFPGDIILRLIA = Fulfilled
2. SFVVVFTFFFGC = Not fulfilled
3. FSCWLFMLCVFL = Not fulfilled
4. CVEACVWYNAGL = Fulfilled
5. VVAALTPLITVA = Not fulfilled
6. IGYLGSELRFVS = Fulfilled
7. VLVVTAFTFSCP = Not fulfilled
8. LCARVCITFNIV = Not fulfilled
9. FVCFSFFFPFLL = Not fulfilled
10. FERKVHSRWLFF = Fulfilled
11. YNRKQEAAQKAN = Fulfilled
12. LWGLVGVCLVLC = Not fulfilled
13. RLVMAVRVAAGG = Not fulfilled
14. TVVIFLCSYITT = Not fulfilled
15. GFFFWTMCFWVV = Not fulfilled
16. YLDRFIFIYNIF = Fulfilled
17. FPTLHPAIPYLC = Fulfilled

====

Test system: Saccharomyces cerevisiae
Procedure text: protein stability index of tFT-peptide fusion (C-terminal peptide) (PSI (0-1 scale)); higher = more stable (slower turnover)
Test parameters: genetic background: das1 deletion; temperature: 30 C
The threshold is inclusive: protein stability index of exactly 0.5 counts as class 1; values below receive class 0.

1. IVIFQTAYVVRI = class 0
2. ALFLYNCVVVTD = class 0
3. GWVVWLTGCLVF = class 0
4. LFLLSVNLLLGY = class 0
5. VNRRCWISRTLP = class 1
6. WLWYSPIAFTAL = class 1
7. APPRSLSPPLLS = class 1
8. IGFFFACFFSVF = class 0
9. HVLGSIYWAIFV = class 0
10. LAINVRRELLFF = class 1
11. LSPPPLSFPFSA = class 1
12. VGCMVVIWVLWG = class 0
13. KERHRNKRKQIA = class 1
14. VCFAWWGARCVA = class 0
15. MALAVRVVPCGA = class 0
16. LFLYDFIALRCS = class 0
17. FSLGGVPYVFFV = class 1
18. SVSMYPKPHLIC = class 1
19. SLCPFLCILCFG = class 0
20. TPYIFVLACLHV = class 0
21. FVVVGVLFLCVG = class 0
22. FYFLSFLLLLSP = class 0
23. IGYLGSELRFVS = class 1
24. STVGAWGRVGEG = class 0
25. RGFIYCSFVVRL = class 0
26. VVLRCGCLVFIN = class 0
27. FCVGVLFSCLVF = class 0
28. TALSRLFECFLS = class 1
29. SRKRIVALMLSG = class 1
30. AMFQLRLLVGSV = class 0
31. VILCSCSFVLRP = class 0
32. LGFFPSPVLCVF = class 0
33. RMLSLFFPLRTL = class 1
34. VFSAIPDWLILA = class 0
35. LCARVCITFNIV = class 0
36. PPPNSSTSPPCS = class 1
37. FRILVGCRVVLM = class 0

====

Test system: Saccharomyces cerevisiae;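 note: PSI is a weighted mean of sequencing reads over stability bins, variants kept only with over 10 reads, mCherry proximal and sfGFP distal, peptide attached via GGGS linker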
Procedure text: protein stability index of tFT-peptide fusion (C-terminal peptide) (PSI (0-1 scale)); higher = more stable (slower turnover)
Test parameters: genetic background: das1 deletion; temperature: 37 C
Below, each of the sequences is paired with its reported protein stability index value.
Quantity kind: protein stability index

1) PSDVLERVIRLL = 0.731
2) PFFHVFLLLLLI = 0.258
3) LEDVLFVMVINI = 0.549
4) RGVPPPPWTPPP = 0.731
5) PPPNSSTSPPCS = 0.683
6) MALAVRVVSCGA = 0.415
7) RIWRLLIIIIKK = 0.565
8) LPSPPSSPPLRP = 0.732
9) VRIGCSLLFFLP = 0.693
10) SLRICACMTVSW = 0.335
11) LFLPFLPTLALL = 0.79
12) LCARVCITFNIV = 0.498
13) YNTRLCTFSCML = 0.788
14) GCVTFVLISFCA = 0.425
15) FYFLSFLLLLSP = 0.294
16) SVSMYPKPHLIC = 0.698
17) WGEAGRPAGRGA = 0.745
18) YPCRLFVRSLLA = 0.498
19) IGFFFACFFSVF = 0.518
